Values compiled from patent US11992494B2.

- target: PAFR (Homo sapiens)
- Sequence (P25105 whole entry): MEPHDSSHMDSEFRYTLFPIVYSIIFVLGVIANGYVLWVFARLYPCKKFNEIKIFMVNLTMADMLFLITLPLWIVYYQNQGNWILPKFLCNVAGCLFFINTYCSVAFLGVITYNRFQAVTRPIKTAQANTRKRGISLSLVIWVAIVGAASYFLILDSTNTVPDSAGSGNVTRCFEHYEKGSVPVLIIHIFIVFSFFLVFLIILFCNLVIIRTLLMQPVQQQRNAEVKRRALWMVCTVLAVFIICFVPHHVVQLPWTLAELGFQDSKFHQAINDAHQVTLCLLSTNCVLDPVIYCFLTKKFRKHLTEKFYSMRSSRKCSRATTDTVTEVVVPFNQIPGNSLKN
- experiment: cellular HTRF IP1 assay: inhibition of PAFR activation by PAF C-16 ligand (endpoint assay)
- Format: cell-based
- Design: expressed in transfected cells; host or cells: HEK293
- condition_summary: dedicated head-to-head comparison assay run: cyclopropylene vs di-methyl / cyclobutylene analogues
measured_metric: IC50 (µM)

These recorded examples may help you get a feel for the data.
1) Cc1nnc2n1-c1sc3c(c1C(c1ccccc1Cl)=NC21CC1)C[C@H](C(=O)N(C)[C@H]1CC[C@H](O)CC1)C3 [Example 112] : 0.0119
2) Cc1nnc2n1-c1sc3c(c1C(c1ccccc1Cl)=NC2(C)C)C[C@H](C(=O)NC1(c2ccccn2)CC1)C3 [reference compound] : 0.026
3) Cc1nnc2n1-c1sc3c(c1C(c1ccccc1Cl)=NC21CC1)C[C@H](C(=O)N1CCC(F)(F)CC1)C3 [Example 129] : 0.0026

A = Cc1noc(C)c1NC(=O)[C@@H]1Cc2sc3c(c2C1)C(c1ccccc1Cl)=NC(C)(C)c1nnc(C)n1-3 [reference compound]
B = Cc1nnc2n1-c1sc3c(c1C(c1ccccc1Cl)=NC2(C)C)C[C@H](C(=O)NC1CCc2cc(F)ccc21)C3 (stereo partly shown) [reference compound]
C = Cc1nnc2n1-c1sc3c(c1C(c1ccccc1Cl)=NC2(C)C)C[C@H](C(=O)N(C)[C@H]1CC[C@H](O)CC1)C3 [reference compound]
**Q:** Let's sort these by IC50, smallest first. Go ahead? Would you mind listing the labels in the order asked for?
**A:** B, A, C
